Origin of the recorded values: PubChem BioAssay (NCI)

Tested on: PC-3 prostate
Experiment: NCI-60 one-dose screen, 48 h (100 = growth as untreated, 0 = no growth, -100 = all killed)
Conditions: 10 µM unless noted
Description: Growth inhibition of the PC-3 human tumor cell line is measured as a screen for anti-cancer activity. Cells are grown in 96 well plates and exposed to the test compound for 48 hours. Compounds are tested at a single concentration, which is 10^-5 M for most compounds. The reported endpoint is percent growth (GI% or GIPRCNT), where numbers from 0 - 100% represent growth inhibition, and numbers from -100% - 0 represent cell death. For example, a value of 40 represents 60% growth inhibition. […]
About 83,000 compounds went through this panel and 20% of them were active in at least one assay; those are over-represented in the sample as a whole.
observed property: growth (%)

CN(C)CCCN=c1cc2c(=O)n(CCCN(C)C)c(=O)c3c(NCCCN(C)C)cc4c(O)n(CCCN(C)C)c(=O)c1c4c3-2
12.1
C/C(=C\CCc1ccoc1)CC/C=C(\C)CCCC1COC(=O)C1 (stereo unspecified)
91.2
O=C(O)c1ccc2cccnc2c1O
1.21
Oc1c(Cl)cc(Cl)c(Cl)c1Cc1c(O)c(Cl)cc(Cl)c1Cl
-6.08
O=C(O)C1CCN(S(=O)(=O)c2ccc(-c3ccccc3)cc2)CC1
80.9
COc1cnc2c(c1)C(=O)c1c-2n(CCCN2CCOCC2)c(=O)c2cc(F)ccc12
12.1
COc1ccc(CNC(=O)c2c(C)n([O-])c3ccc(OC)cc3[n+]2=O)cc1
80.5
C(=C1c2ccccc2-c2ccccc21)c1ccncc1
58.6
CC(=O)N1N=C(c2ccc(C(F)(F)F)cc2)CC1c1ccc2c(c1)OCO2 (stereo unspecified)
73.9
C[C@H]1C(=O)N2c3ccccc3[C@@]3(O)C[C@@H](n4cnc5ccccc5c4=O)C(=O)N1[C@@H]23
95.6
COc1ccc(C2CC(c3ccc4c(c3)OCO4)=NN2C=O)cc1 (stereo unspecified)
93.4

====

Test system: ACHN renal
Experiment: NCI-60 one-dose screen, 48 h
Conditions: 10 µM unless noted
This is part of a sample that, as a whole, favours compounds with a hit. Of some 83,000 tested, about 20% had one in any assay. Calls of active or inactive are those of the source. Rule for the calls: active = growth percent below 10; inactive = the rest.
Labels: 1 (active), 0 (inactive)

COc1ccc(C2=NN(C(C)=O)C(c3c(C)nn(-c4ccccc4)c3N3CCOCC3)C2)cc1 (centres undefined)
0
CC(C)=CCCC(C)c1ccc(C)c2c1OCN(CC1CCNCC1)C2 (centres undefined)
0
CCCCCCCCCCCCC1CCCC(C)C1 (centres undefined)
0
CC(=O)c1ccc(NS(=O)(=O)c2ccc([N+](=O)[O-])cc2)cc1
0
COc1ccc2c(c1)sc1nc(-c3ccc(N(C)C)cc3)cn12
0
CC(C)N(Cc1ccccc1)c1c(S)ssc1=S
1
CCOc1cc(/C=C/C(=O)C(C(=O)/C=C/c2ccc(OC(=O)CNc3nnc(C)s3)c(OCC)c2)C(=O)CNc2nnc(C)s2)ccc1OC(=O)CNc1nnc(C)s1
1
CC[C@H]1CN2CCc3cc(OC)c(OC)cc3C2C[C@@H]1CC1NCCc2cc(OC)c(OC)cc21 (some centres undefined)
1
COc1cc2c(cc1OC)C(CC1(O)CCCCC1)N(S(=O)(=O)c1ccc(C)cc1)CC2 (centres undefined)
0
c1ccc2nc(N/N=C3\CCCCC3C3CCCCC3)ccc2c1 (centres undefined)
0
Cc1cc(C)cc(S(=O)(=O)n2ccc(-c3ccc4c(c3)CCC(C)(C)O4)n2)c1
0
CCOC(=O)CCN(c1c(Cl)ssc1=O)C(C)C
0
COc1cccc(CCN2C(=O)CCC3=C2CCC3=O)c1
0
CN(C)c1ccc(-n2nc3ccccc3n2)cc1
0
COc1ccc(/C=C2/SC(=Nc3c(C)nn(-c4ccccc4)c3N)NC2=O)cc1
0
CCOc1cc(/C=C/C(=O)CC(=O)/C=C/c2ccc(OC(=O)CNCCN(CC)CC)c(OCC)c2)ccc1OC(=O)CNCCN(CC)CC
1
CCSc1nc(-c2cccs2)n2nc(-c3ccco3)cc2n1
0
Cc1ccc2nc(-c3ccc(N(C)C)c(Br)c3)cn2c1
0
C[C@@H]1[C@H]2[C@H](C=C3[C@@H]4CC[C@H]5Cc6nc7c(nc6C[C@]5(C)[C@H]4C[C@@H](O)[C@@]32C)C[C@@H]2CC[C@H]3C4=C[C@@H]5O[C@@]6(CC[C@](C)(CO)O6)[C@@H](C)[C@@]5(O)[C@@]4(C)[C@H](O)C[C@@H]3[C@@]2(C)C7)O[C@]12CCC(C)(C)O2
0
Cc1ccc(C(NC(=O)c2ccccc2)c2ccc3cccnc3c2O)cc1 (centres undefined)
1
Cc1cn(C(C=O)OC(C=O)CO)c(=O)[nH]c1=O (centres undefined)
0
CCOc1cc(/C=C/C(=O)C(C(=O)/C=C/c2ccc(OC(=O)CNc3nc4ccccc4[nH]3)c(OCC)c2)C(=O)CNc2nc3ccccc3[nH]2)ccc1OC(=O)CNc1nc2ccccc2[nH]1
1
CC(C)CNc1nc(N=[N+]=[N-])nc(NCC(C)C)n1
0
COc1ccc(CNC(=O)c2c(C)n([O-])c3cc(F)c(F)cc3[n+]2=O)cc1
0
O=C(COc1ccc(/C=C2\Oc3ccc4ccccc4c3C2=O)cc1)c1ccc(Cl)cc1
0
Cc1cccc2nnc(-c3ccccc3)n12
0
CNCCCn1c2c(c3ccc(F)cc3c1=O)C(=O)c1cc(OC)cnc1-2
1
COc1cc(-c2nnc(-c3nc(-c4cc(OC)c(OC)c(OC)c4)n4ccccc34)o2)ccc1N
0
O=C(Nc1nn2c(-c3cc(C(F)(F)F)cc(C(F)(F)F)c3)nnc2s1)C1CCCC1
1
Cc1nn2c(/C=C3/C(=O)Nc4cc(Cl)ccc43)c(-c3ccccc3)nc2s1
1
CCSc1ncc(Br)c(Sc2nc(N)nc3nc[nH]c23)n1
0
Cc1ccc(-c2c3c(N)nc(-c4ccncc4)nc3nc3c2c(C)nn3-c2ccccc2)cc1
0
COc1cccc(-c2nc3cc(NC(=O)c4ccc(Cl)c(C#N)c4)ccc3o2)c1
0
[N-]=[N+]=NCc1cccc(/C(O)=C/C(=O)C(=O)O)c1
0
COc1ccc(-c2c3c(N)nc(-c4ccncc4)nc3nc3c2c(C)nn3-c2ccccc2)cc1
1
Nc1ncnc2c1CN(Cc1ccccc1)CC2
0
CCSc1nc(Nc2ccc(S(=O)(=O)Nc3ccon3)cc2)c(C#N)c(-c2cccc(Br)c2)n1
0
CCc1ccc(-c2nc(SCC(=O)NC3CCCCC3)n[nH]2)cc1
0
Nc1c(C(=O)Nc2cccc(Cl)c2)sc2nc3c(cc12)C(O)CCC3 (centres undefined)
0
